assay: qHTS assay for small molecule agonists of the antioxidant response element (ARE) signaling pathway measured by Nrf2-dependant transcriptional activity - cell viability counter screen (AID 720653); conditions: ARE-bla HepG2 viability, CellTiter-Glo ATP luminescence, 16 h; stronger effect = lower value; further: on the % scale 0 is the no-effect control and ±100 the full control effect
Records with an inconclusive call do not appear.
Entries and their measured max response follow.

- Compound: "NCCO/C=C/[C@H](N)C(=O)O"
  max response, %: 6.58
- Compound: "CN(CCO)CC(O)Cn1cnc2c1c(=O)n(C)c(=O)n2C (stereo not drawn) (tested in a mixture with another compound)"
  max response, %: 2.54
- Compound: "Oc1cccc(O)c1O"
  max response, %: -24.8
- Compound: "OCl"
  max response, %: -6.58
- Compound: "CC(C)CCC[C@@H](C)[C@H]1CC[C@H]2[C@@H]3CC=C4C[C@@H](O)CC[C@]4(C)[C@H]3CC[C@]12C"
  max response, %: -4.46
- Compound: "CC[C@H]1OC(=O)[C@H](C)[C@@H](O[C@H]2C[C@@](C)(OC)[C@@H](O)[C@H](C)O2)[C@H](C)[C@@H](O[C@@H]2O[C@H](C)C[C@H](N(C)C)[C@H]2O)[C@](C)(O)C[C@@H](C)CN(C)[C@H](C)[C@@H](O)[C@]1(C)O"
  max response, %: -20.4
- Compound: "CCOC(C)OCC"
  max response, %: -4.14
- Compound: "OCc1ccccc1"
  max response, %: -4.76
- Compound: "O.O.O.O.O.O.O.O=S(=O)([O-])[O-].[Co+2]"
  max response, %: -4.91
- Compound: "NCCN"
  max response, %: -3.91
- Compound: "Cc1ccc(S(=O)(=O)NCl)cc1"
  max response, %: -0.456
- Compound: "C=CC(C)(O)CC/C=C(\\C)CCC=C(C)C (stereo not drawn)"
  max response, %: 1.82
- Compound: "C[C@H](CCC(=O)O)[C@H]1CC[C@H]2[C@@H]3[C@H](O)C[C@@H]4C[C@H](O)CC[C@]4(C)[C@H]3C[C@H](O)[C@]12C"
  max response, %: 1.94
- Compound: "Cc1ncc[nH]1"
  max response, %: 2.15
- Compound: "[O-][N+](=Nc1ccccc1)c1ccccc1"
  max response, %: -2.2
- Compound: "CC(C)O"
  max response, %: 2
- Compound: "OC[C@H]1O[C@@](CO)(O[C@H]2O[C@H](CO)[C@@H](O)[C@H](O)[C@H]2O)[C@@H](O)[C@@H]1O"
  max response, %: -5.77
- Compound: "Cc1ccc(S(=O)(=O)O)cc1C"
  max response, %: 12.7

----------
tested on: DIV17; test: qHTS profiling for inhibitors of Plasmodium falciparum proliferation (AID 504749); further: nearly all actives have a fitted effect of over 60% in size; details: P. falciparum in erythrocytes, SYBR Green DNA, 72 h; series mostly up to 28.7 µM
Records with an inconclusive call do not appear. Calls of active or inactive are those of the source. The call rests on the fitted dose curve; in most records, active means well fitted inhibition curve with a large enough effect; inconclusive means small, poorly fitted or top-dose-only effect; inactive means flat fitted curve, though single readings scatter.
Outcome codes: t for active, f for inactive

- Compound: "Cc1c(Cl)cccc1Nc1ncccc1C(=O)O"
  Label: "f"
- Compound: "Cc1ncc[nH]1"
  Label: "f"
- Compound: "O=C1CCC(=O)N1CO"
  Label: "f"
- Compound: "CCCCCCOC(=O)c1cccnc1"
  Label: "f"
- Compound: "Cc1nc(NS(=O)(=O)c2ccc(N)cc2)nc(C)c1Br"
  Label: "f"
- Compound: "CCCCC(CC)COS(=O)(=O)O (stereo not given)"
  Label: "f"
- Compound: "O=C(O)C1=C(CSc2nnnn2CS(=O)(=O)O)CS[C@@H]2[C@H](NC(=O)[C@H](O)c3ccccc3)C(=O)N12"
  Label: "f"
- Compound: "Cc1ccccn1"
  Label: "f"
- Compound: "Cc1ncc(C[n+]2csc(CCO)c2C)c(N)n1"
  Label: "f"
- Compound: "NC(=S)N=Nc1ccc(NN=C(N)N)cc1"
  Label: "t"
- Compound: "C=CC[N+]1([C@H]2C[C@H]3[C@@H]4CC[C@H]5C[C@H](O)[C@@H](N6CCOCC6)C[C@]5(C)[C@H]4CC[C@]3(C)[C@H]2OC(C)=O)CCCC1"
  Label: "f"
- Compound: "O=C(NNCS(=O)(=O)O)c1ccncc1"
  Label: "f"
- Compound: "C[C@H](O)CN(C)C"
  Label: "f"
- Compound: "CCN(CC)CCOC(=O)c1cccnc1"
  Label: "f"
- Compound: "CCCCCCCCCCCCCCCCCCCCCC(=O)Nc1ccn([C@@H]2O[C@H](CO)[C@@H](O)[C@@H]2O)c(=O)n1"
  Label: "f"
- Compound: "COC(=O)C(CN)c1c[nH]c2ccc(OC)cc12 (stereo not given)"
  Label: "f"
- Compound: "CCCCO"
  Label: "f"
- Compound: "CCCCC"
  Label: "f"
- Compound: "FC(F)(F)COCC(F)(F)F"
  Label: "f"
- Compound: "COc1ccc(-c2noc(CC(=O)O)c2-c2ccc(OC)cc2)cc1"
  Label: "f"
- Compound: "Oc1cccc(O)c1O"
  Label: "t"
- Compound: "O=C(O)COc1ccccc1/C=N/NC(=O)c1ccncc1"
  Label: "f"
- Compound: "O=C(O)[C@H]1C(=CCO)O[C@H]2CC(=O)N12"
  Label: "f"
- Compound: "CC(=O)Oc1cccc2c1C(=O)c1c(OC(C)=O)cc(C(=O)O)cc1C2=O"
  Label: "f"
- Compound: "CN[C@@H]1[C@H](O[C@H]2[C@H](O[C@H]3[C@H](O)[C@@H](O)[C@H](N=C(N)N)[C@@H](O)[C@@H]3N=C(N)N)O[C@@H](C)[C@]2(O)C=O)O[C@@H](CO)[C@H](O)[C@H]1O"
  Label: "f"

----------
system: CP203; assay: qHTS profiling for inhibitors of Plasmodium falciparum proliferation (AID 504749); further: nearly all actives have a fitted effect of over 60% in size; conditions: P. falciparum in erythrocytes, SYBR Green DNA, 72 h; series mostly up to 28.7 µM
Inconclusive results are not listed. Active and inactive are the calls of the source. Calls follow the shape of the dose curve; as a rule, active = well fitted inhibition curve with a large enough effect; inconclusive = small, poorly fitted or top-dose-only effect; inactive = flat fitted curve, though single readings scatter.
Outcome codes: active, inactive

- Molecule: "CCCCCc1ccc(C)cc1O"
  Label: "inactive"
- Molecule: "CC(C)(CO)[C@@H](O)C(=O)NCCC(=O)NCCSSCCNC(=O)CCNC(=O)[C@H](O)C(C)(C)CO"
  Label: "inactive"
- Molecule: "Cc1cc(C)c(NC(=O)C[C@H](CC(=O)O)c2cccc3ccccc23)c(C(=O)N2CCC3(CCCC3)CC2)c1"
  Label: "inactive"
- Molecule: "Nc1ccc(N=Nc2ccccc2)c(N)n1"
  Label: "inactive"
- Molecule: "COc1ccc2c(c1)OC(C)(C)C(c1ccccc1)C2c1ccc(OCCN2CCCC2)cc1 (centres undefined)"
  Label: "active"
- Molecule: "CC(=O)N[C@@H]1C(O[C@H]2O[C@H](C(=O)O)C(O)[C@H](O)[C@H]2O)[C@H](O)[C@@H](CO)O[C@H]1O[C@@H]1C(C(=O)O)O[C@@H](O[C@H]2[C@H](O)[C@@H](CO)OC(O)[C@@H]2NC(C)=O)[C@H](O)[C@H]1O (some centres undefined)"
  Label: "inactive"
- Molecule: "OC/C=C/c1ccccc1"
  Label: "inactive"
- Molecule: "CC1CC(OC(=O)C(O)c2ccccc2)CC(C)(C)C1 (centres undefined)"
  Label: "inactive"
- Molecule: "O=c1[nH]c(=O)n([C@H]2C[C@H](O)[C@@H](CO)O2)cc1/C=C/Br"
  Label: "inactive"
- Molecule: "O=C1c2ccccc2C(=O)C1c1ccc(F)cc1"
  Label: "inactive"
- Molecule: "CCCCC[C@H](O)/C=C/[C@H]1[C@H](O)CC(=O)[C@@H]1C/C=C\\CCCC(=O)O"
  Label: "inactive"
- Molecule: "CN1CCC(OC(=O)C(Oc2ccc(Cl)cc2)Oc2ccc(Cl)cc2)CC1"
  Label: "inactive"
- Molecule: "N[C@H](CC(=O)O)C(=O)O"
  Label: "inactive"
- Molecule: "CC(CNC(=O)c1cccnc1)NC(=O)c1cccnc1 (centres undefined)"
  Label: "inactive"
- Molecule: "CCCCCCCCCCCCCC(=O)OCC(COP(=O)([O-])OCC[N+](C)(C)C)OC(=O)CCCCCCCCCCCCC (centres undefined)"
  Label: "inactive"
- Molecule: "Cn1c(=O)c2c(ncn2CCOC(=O)C(C)(C)Oc2ccc(Cl)cc2)n(C)c1=O"
  Label: "inactive"
- Molecule: "C[C@H]1O[C@@H](O[C@H]2[C@@H](O)C[C@H](O[C@H]3[C@@H](O)C[C@H](O[C@H]4CC[C@@]5(C)[C@H](CC[C@@H]6[C@@H]5C[C@@H](O)[C@]5(C)[C@@H](C7=CC(=O)OC7)CC[C@]65O)C4)O[C@@H]3C)O[C@@H]2C)C[C@H](O)[C@@H]1O"
  Label: "inactive"
- Molecule: "Cc1ccc(C(C)(C)c2ccc(C)cc2)cc1"
  Label: "inactive"
- Molecule: "CC(CCc1ccc(O)cc1)NCC(O)c1ccc(O)cc1 (centres undefined)"
  Label: "inactive"
